# Test system: CYP2C19 and CYP3A4
# protocol: Pantoprazole pharmacokinetics
# Type: in vivo, patients (kidney transplant recipients with late ABMR)
# assay setup: human, plasma, iv, 20 mg, T1/2, 20 mg i.v.; day 0; Total (n = 20); median (IQR)
measurement name: half-life (h)
// note: answer is a bare numeric in h

For this molecule ( COc1ccnc(C[S+]([O-])c2nc3ccc(OC(F)F)cc3[nH]2)c1OC (stereo not shown) ), measured half-life is 1.08

* * *

# System: CYP3A4/CYP3A5
# Type: in vivo, patients (kidney transplant recipients with late ABMR)
# assay setup: human, whole blood, C0 level, week 12; placebo arm (n = 7); median [IQR]
measurement name: C0 at 12 week
Write the numeric value and append its unit.

Form field, C0 at 12 week with CYP3A4/CYP3A5, item "C=CC[C@@H]1/C=C(\C)C[C@H](C)C[C@H](OC)[C@H]2O[C@@](O)(C(=O)C(=O)N3CCCC[C@H]3C(=O)O[C@H](/C(C)=C/[C@@H]3CC[C@@H](O)[C@H](OC)C3)[C@H](C)[C@@H](O)CC1=O)[C@H](C)C[C@@H]2OC" : 6.4 ng/mL

* * *

# Tested on: CYP2C19 and CYP3A4
# protocol: Pantoprazole pharmacokinetics
# Format: in vivo, patients (kidney transplant recipients with late ABMR)
# assay setup: human, plasma, iv, 20 mg, Cmax, 20 mg i.v.; day 0; Total (n = 20); median (IQR)
measurement name: Cmax (ng/mL)
API: value field is a number in ng/mL; no unit string.

Consider COc1ccnc(C[S+]([O-])c2nc3ccc(OC(F)F)cc3[nH]2)c1OC (stereo not shown) . Its measured Cmax is 1490

* * *

# Test system: CYP3A4/CYP3A5
# Format: in vivo, patients (kidney transplant recipients with late ABMR)
# assay setup: human, whole blood, C0 level; baseline; Clazakizumab arm; median (IQR)
measurement name: concentration at 0 day

Lookup result for "C=CC[C@@H]1/C=C(\C)C[C@H](C)C[C@H](OC)[C@H]2O[C@@](O)(C(=O)C(=O)N3CCCC[C@H]3C(=O)O[C@H](/C(C)=C/[C@@H]3CC[C@@H](O)[C@H](OC)C3)[C@H](C)[C@@H](O)CC1=O)[C@H](C)C[C@@H]2OC" ; measured concentration at 0 day: 5.6 ng/mL
